- molecule: "COc1ccc(-c2ccc(C(=O)O)c(C(=O)O)c2)c2c1OCCO2"
  melting point: "192 to 196 °C"
- molecule: "COc1ccc(-c2ccc3ccc(NC(=O)c4ccc(C(F)(F)F)cc4)nc3n2)cc1"
  melting point: "148 °C"
- molecule: "CCNC(=O)Oc1cc2c(cc1Cl)CCN(C)C[C@H]2c1ccccc1"
  melting point: "133 to 134 °C"
- molecule: "COc1ccc2cc(C=CC(C)OC(C)=O)ccc2c1 (stereo unspecified)"
  melting point: "78 to 80 °C"
- molecule: "COc1cccc(C(CNC(=O)Cc2c(Cl)cncc2Cl)C(C)C)c1 (stereo unspecified)"
  melting point: "94 to 95 °C"
- molecule: "COc1ccc(CCc2ccc(C(=O)O)cc2)cc1OC(C)CCCc1ccccc1 (stereo unspecified)"
  melting point: "112 °C"
- molecule: "Cc1ccc2c(c1)C=C(N1CCN(CCN3CCOC3=O)CC1)c1cc(Cl)ccc1S2"
  melting point: "194 to 196 °C"
- molecule: "CCCCNC(=O)CCC(=O)O"
  melting point: "93.5 to 94.5 °C"
- molecule: "CCCCN(CCCC)C(=S)Nc1ccc(NNC=O)cc1"
  melting point: "139 to 141 °C"
- molecule: "O=c1oc(Nc2ccccc2F)nc2ccccc12"
  melting point: "152 to 155 °C"
- molecule: "CCOC(=O)CCC1CCN(c2ccc(C#N)c3ccccc23)CC1"
  melting point: "106 to 107 °C"
